Listing: percent inhibition of viability of selected compounds
- System: SNK-6 (IL-2 2.5 ng/mL);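 note: normalised to DMSO-only wells as negative and benzethonium chloride as positive control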
- assay overview: percent inhibition of viability; higher = more inhibition
- test context: 72 h; 0.1 nM
property: percent inhibition of viability (%)

>  <compound>
O=C(c1ccc(F)c(F)c1Nc1ccc(I)cc1F)N1CC(O)([C@@H]2CCCCN2)C1 [Cobimetinib] (max concentration tested 1000 nM)

>  <quantitative readout>
-10.3

$$$$
>  <compound>
COc1ncc(-c2ccc3nccc(-c4ccnnc4)c3c2)cc1NS(=O)(=O)c1ccc(F)cc1F [Omipalisib] (max concentration tested 1000 nM)

>  <quantitative readout>
8.44

$$$$
>  <compound>
Cc1c2oc3c(C)ccc(C(=O)N[C@@H]4C(=O)N[C@H](C(C)C)C(=O)N5CCC[C@H]5C(=O)N(C)CC(=O)N(C)[C@@H](C(C)C)C(=O)O[C@@H]4C)c3nc-2c(C(=O)N[C@@H]2C(=O)N[C@H](C(C)C)C(=O)N3CCC[C@H]3C(=O)N(C)CC(=O)N(C)[C@@H](C(C)C)C(=O)O[C@@H]2C)c(N)c1=O [Dactinomycin] (max concentration tested 1000 nM)

>  <quantitative readout>
33.9

$$$$
>  <compound>
O=C(Nc1cccc(Cl)c1)Nc1ncc(CCNc2ncnc3ccsc23)s1 [SNS-314] (max concentration tested 1000 nM)

>  <quantitative readout>
-12.7

$$$$
>  <compound>
CCN1CCN(c2ccc(Nc3cc(N(C)C(=O)Nc4c(Cl)c(OC)cc(OC)c4Cl)ncn3)cc2)CC1 [NVP-BGJ398] (max concentration tested 1000 nM)

>  <quantitative readout>
-1.53

$$$$
